- MEASUREMENT DESCRIPTION: chemical recovery into PDMS from spiked human plasma; higher = better extraction
- DETAILS: pooled human plasma; extraction method: PES with PDMS; equilibration time (d): 3
Reported values of chemical recovery into PDMS for individual entries
Give the value, in units of %, as a plain number.

Below: 10 compounds and their reported chemical recovery into PDMS.
{"COMPOUND": "O=C1C2CC3C1C1(Cl)C(Cl)C4(Cl)C2C3C1(Cl)C4(Cl)Cl (configuration not stated)", "chemical recovery into PDMS (%)": 90.3}
{"COMPOUND": "CCC(=O)OCC(=O)[C@@]1(OC(=O)CC)[C@@H](C)C[C@H]2[C@@H]3CCC4=CC(=O)C=C[C@]4(C)[C@@]3(F)[C@@H](O)C[C@@]21C [Betamethasone dipropionate]", "chemical recovery into PDMS (%)": 44}
{"COMPOUND": "CN1C(=O)CC[C@H]1c1cccnc1", "chemical recovery into PDMS (%)": 10.6}
{"COMPOUND": "C#C[C@]1(O)C=C[C@H]2[C@@H]3CCC4=CC(=O)CC[C@@H]4[C@H]3CC[C@@]21CC", "chemical recovery into PDMS (%)": 43}
{"COMPOUND": "CC(C)(C)Nc1nc(N)nc(Cl)n1", "chemical recovery into PDMS (%)": 40.9}
{"COMPOUND": "Clc1cc(-c2cc(Cl)c(Cl)c(Cl)c2Cl)c(Cl)c(Cl)c1Cl", "chemical recovery into PDMS (%)": 54.4}
{"COMPOUND": "c1ccc2[nH]nnc2c1", "chemical recovery into PDMS (%)": 6.44}
{"COMPOUND": "CCCCC(CC)COC(=O)C(C#N)=C(c1ccccc1)c1ccccc1 (configuration not stated)", "chemical recovery into PDMS (%)": 65.5}
{"COMPOUND": "CSc1nnc(C(C)(C)C)c(=O)n1N", "chemical recovery into PDMS (%)": 25.2}
{"COMPOUND": "CC[C@@]1([C@@H]2O[C@@H]([C@H]3O[C@@](O)(CO)[C@H](C)C[C@@H]3C)C[C@@H]2C)CC[C@H]([C@]2(C)CC[C@]3(C[C@H](O)[C@@H](C)[C@@H]([C@@H](C)[C@@H](OC)[C@H](C)C(=O)O)O3)O2)O1", "chemical recovery into PDMS (%)": 38.6}

Could you now look at the following compound, please?
Request: Quickly give me recorded chemical recovery into PDMS for N#Cc1cc(Br)c(O)c(Br)c1
Result: 0.00783
